Listing of entries alongside the reported normalised cell viability.
System: NCI-H1944
testName: normalised cell viability (NPI; 0 = phenylarsine oxide control, 1 = DMSO control) (fraction of DMSO control); higher = more viable cells (less compound toxicity)
assayConditions: glucocorticoid arm: hydrocortisone 2.75 uM pre-treated 2 days and continued; compound 1 µM; 6 days
Over roughly 1,900 compounds, “normalised cell viability (NPI; 0 = phenylarsine oxide control, 1 = DMSO control)” has its median near 1; the lowest 2% begin near 0.039. This is one part of a sample in which the lowest values are shown more often than they occur.
Answer as a number with no unit attached.

Incoming: State its normalised cell viability: CN/C(=N\c1ccc(C2=NNC(=O)CC2C)cc1)NC#N (centres undefined)
Outgoing: 0.875

Incoming: State its normalised cell viability: CN1CCc2c(c3ccccc3n2Cc2ccc(C(=O)NO)cc2)C1 [Tubastatin A]
Outgoing: 0.983

Incoming: State its normalised cell viability: Cn1cc(C(=O)OCC2CCN(CCNS(C)(=O)=O)CC2)c2ccccc21
Outgoing: 1.02

Incoming: State its normalised cell viability: CSc1nc(N)c2ncn([C@@H]3O[C@H](COP(=O)(O)OP(=O)(O)O)[C@@H](O)[C@H]3O)c2n1 [2-Methylthioadenosine diphosphate trisodium]
Outgoing: 1.01

###

Listing of entries alongside the reported normalised cell viability.
Test system: NCI-H1944
testName: normalised cell viability (NPI; 0 = phenylarsine oxide control, 1 = DMSO control) (fraction of DMSO control); higher = more viable cells (less compound toxicity)
assayConditions: glucocorticoid arm: hydrocortisone 2.75 uM pre-treated 2 days and continued; compound 1 µM; 6 days
Structures can show the parent of a compound that is named as a salt. The full ranking holds about 1,900 compounds; the median of “normalised cell viability (NPI; 0 = phenylarsine oxide control, 1 = DMSO control)” is about 1, and the lowest 2% start at about 0.039. Only a selection was taken, and the lowest values are over-represented in it overall.
Answer as a number with no unit attached.

Some entries whose results are on file:
# compound, tgt, propertyLabel, resultValue
measured = [
    ("NCCC[C@](N)(C(=O)O)C(F)F (racemic) [DL-alpha-Difluoromethylornithine hydrochloride]", "NCI-H1944", "normalised cell viability", 0.987),
    ("C[C@H](O)[C@H](O)[C@H]1CNc2nc(N)[nH]c(=O)c2N1 [(6R)-5,6,7,8-Tetrahydro-L-biopterin dihydrochloride]", "NCI-H1944", "normalised cell viability", 0.923),
    ("C[C@@H](Oc1ccc(Oc2cnc3ccc(Cl)cc3n2)cc1)C(=O)O", "NCI-H1944", "normalised cell viability", 0.858),
    ("NC(Cc1cccc(-c2ccccc2CP(=O)(O)O)c1)C(=O)O (stereo not given)", "NCI-H1944", "normalised cell viability", 1.06),
    ("CC[C@@H]1C(=O)N(C)c2cnc(Nc3ccc(C(=O)NC4CCN(C)CC4)cc3OC)nc2N1C1CCCC1", "NCI-H1944", "normalised cell viability", 0.797),
]

Incoming: State its normalised cell viability: N/C(=N\C(=O)c1nc(Cl)c(N)nc1N)NCc1ccccc1 [Benzamil hydrochloride]
Outgoing: 1.03

Incoming: State its normalised cell viability: Cc1cc([C@@H](C)Nc2ccccc2C(=O)O)c2nc(N3CCOCC3)cc(=O)n2c1
Outgoing: 0.879

###

Tested on: NCI-H1944
testName: normalised cell viability (NPI; 0 = phenylarsine oxide control, 1 = DMSO control) (fraction of DMSO control); higher = more viable cells (less compound toxicity)
assayConditions: glucocorticoid arm: hydrocortisone 2.75 uM pre-treated 2 days and continued; compound 1 µM; 6 days
Where a name gives a salt, the structure may show the parent alone. Over roughly 1,900 compounds, “normalised cell viability (NPI; 0 = phenylarsine oxide control, 1 = DMSO control)” has its median near 1; the lowest 2% begin near 0.039. The entries come from a sample that favours the lowest values as a whole.
propertyLabel: normalised cell viability
Answer as a number with no unit attached.

# compound, resultValue
data = [
    ("CN(C)CCC(c1ccc(Cl)cc1)c1ccccn1 (racemic) [(±)-Chlorpheniramine maleate]", 0.984),
    ("CN1CC2c3ccccc3Oc3ccc(Cl)cc3C2C1 (stereo not drawn)", 1.01),
    ("O=C1c2c(O)cc(O)cc2O[C@H](c2ccc(O)c(O)c2)[C@H]1O (racemic) [(±)-Taxifolin]", 1.02),
    ("O=C(NCc1cccc(O)c1)Nc1nc(-c2ccncc2)cs1", 1.01),
]

Incoming: State its normalised cell viability: CC(Cc1ccccc1)Nc1ncnc2c1ncn2C1OC(CO)C(O)C1O (stereo not drawn) [R(-)-N6-(2-Phenylisopropyl)adenosine]
Outgoing: 1

Incoming: State its normalised cell viability: OC[C@H]1O[C@@H](n2cnc3c(Nc4ccccc4)ncnc32)[C@H](O)[C@@H]1O
Outgoing: 1.02

Incoming: State its normalised cell viability: OC[C@H]1NC[C@@H](O)[C@@H]1O
Outgoing: 0.997

Incoming: State its normalised cell viability: Nc1ccccc1NC(=O)c1ccc(CNC(=O)OCc2cccnc2)cc1 [Entinostat (MS-275)]
Outgoing: 1.02

###

System: NCI-H1944;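 note: CTB read-out in 384-well plates, triplicate wells, NPI normalised per plate against 1 µM phenylarsine oxide (0) and 0.1% DMSO (1) controls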
testName: normalised cell viability (NPI; 0 = phenylarsine oxide control, 1 = DMSO control) (fraction of DMSO control); NCI-H1944 is a non-small cell lung cancer line; higher = more viable cells (less compound toxicity)
assayConditions: glucocorticoid arm: hydrocortisone 2.75 uM pre-treated 2 days and continued; compound 1 µM; 6 days
Structures can show the parent of a compound that is named as a salt. Over roughly 1,900 compounds, “normalised cell viability (NPI; 0 = phenylarsine oxide control, 1 = DMSO control)” has its median near 1; the lowest 2% begin near 0.039. For the sample, the lowest values were picked, then their nearest neighbours and some compounds at random.
propertyLabel: normalised cell viability
Answer as a number with no unit attached.

Some entries whose results are on file:
# molecule, tgt, resultValue
measured = [
    ("N[C@@H](Cc1ccc(O)c(I)c1)C(=O)O", "NCI-H1944", 0.991),
    ("O=C(O)C=C1CCCc2ccccc2C1O (stereo not drawn)", "NCI-H1944", 0.987),
    ("N=C(N)NCCC[C@H](N)C(=O)O", "NCI-H1944", 0.994),
    ("N=C(N)NC(=O)c1nc(Cl)c(N)nc1N [Amiloride hydrochloride]", "NCI-H1944", 0.991),
    ("CC(C)(C)NCC(O)COc1cccc2[nH]c(=O)[nH]c12 (racemic)", "NCI-H1944", 0.992),
    ("C#Cc1ccc2c(c1)C(=O)N(C)Cc1c(C(=O)OCCCOC(=O)c3ncn4c3CN(C)C(=O)c3cc(C#C)ccc3-4)ncn1-2 [Xli 093 hydrate]", "NCI-H1944", 1),
    ("CC[C@@H]1C(=O)N(C)c2cnc(Nc3ccc(C(=O)N[C@H]4CC[C@H](N5CCN(CC6CC6)CC5)CC4)cc3OC)nc2N1C(C)C", "NCI-H1944", 0.58),
    ("c1ccc(C2CN3CCSC3=N2)cc1 (single isomer, unassigned; (-)) [(-)-Tetramisole hydrochloride]", "NCI-H1944", 1.02),
]

Incoming: State its normalised cell viability: OC(CN1CCC(Cc2ccc(F)cc2)CC1)c1ccc(Cl)cc1 (stereo not drawn)
Outgoing: 0.983

Incoming: State its normalised cell viability: N/C(=N\C(=O)c1nc(Cl)c(N)nc1N)NCc1ccc(Cl)c(Cl)c1 [3',4'-Dichlorobenzamil hydrochloride]
Outgoing: 0.998

Incoming: State its normalised cell viability: C=C1C(=O)O[C@@H](CCC)[C@@H]1C(=O)O
Outgoing: 0.998

Incoming: State its normalised cell viability: CN(C)CCSSCCNC(=O)C1CCN(C(=O)CSc2ccc(Cl)cc2)CC1
Outgoing: 1.03

Incoming: State its normalised cell viability: N[C@@H](CCCC(=O)O)C(=O)O
Outgoing: 0.997
